target: B-RAF V600E (Homo sapiens, UniProt P15056, V600E); construct: expressed in transfected cells; host or cells: T-Rex 293 cells (Invitrogen #R71007); assay: Target protein degradation, assay C: T-Rex 293 cells, HA-BRAF_V600E, 384 well format; assay type: cell-based; conditions: Assay C, T-Rex 293 HA-BRAF_V600E cells, 24 hours, Examples 83-269
Sequence (P15056 whole entry V600E): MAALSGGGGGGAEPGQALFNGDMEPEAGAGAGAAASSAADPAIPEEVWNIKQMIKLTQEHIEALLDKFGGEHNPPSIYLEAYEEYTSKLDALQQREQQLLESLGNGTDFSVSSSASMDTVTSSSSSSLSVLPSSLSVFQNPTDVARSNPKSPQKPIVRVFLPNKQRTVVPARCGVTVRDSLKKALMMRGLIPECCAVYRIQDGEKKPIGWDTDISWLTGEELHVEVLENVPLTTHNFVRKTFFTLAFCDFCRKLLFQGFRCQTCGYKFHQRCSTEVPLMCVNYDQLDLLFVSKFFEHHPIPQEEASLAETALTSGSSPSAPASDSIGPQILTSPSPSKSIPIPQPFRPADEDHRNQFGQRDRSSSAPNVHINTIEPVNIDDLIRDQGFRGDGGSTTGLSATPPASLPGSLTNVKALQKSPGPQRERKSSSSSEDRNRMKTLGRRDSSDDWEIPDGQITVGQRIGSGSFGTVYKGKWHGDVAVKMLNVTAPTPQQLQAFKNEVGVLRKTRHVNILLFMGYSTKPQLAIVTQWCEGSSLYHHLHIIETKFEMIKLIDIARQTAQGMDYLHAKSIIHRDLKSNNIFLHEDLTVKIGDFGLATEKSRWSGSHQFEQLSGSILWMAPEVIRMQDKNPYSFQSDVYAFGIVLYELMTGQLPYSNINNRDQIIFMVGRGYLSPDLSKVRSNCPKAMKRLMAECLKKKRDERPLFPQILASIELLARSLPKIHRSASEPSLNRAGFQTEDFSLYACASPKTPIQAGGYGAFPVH

{"compound": "N#Cc1c(NS(=O)(=O)N2CC[C@@H](F)C2)ccc(F)c1Oc1ccc2ncn(-c3ccc(N4CCC(CN5CC(c6ccc7c(c6)CN([C@H]6CCC(=O)NC6=O)C7=O)C5)CC4)cc3)c(=O)c2c1 [Example 215]", "target-or-test-system": "B-RAF V600E (Homo sapiens, UniProt P15056, V600E)", "DC50": "50 to 500 nM"}
{"compound": "N#Cc1c(NS(=O)(=O)N2CC[C@@H](F)C2)ccc(F)c1Oc1ccc2ncn(-c3ccc(N4CCC5(CCN(CC6CCN(c7ccc8c(c7)C(=O)N(C7CCC(=O)NC7=O)C8=O)CC6)CC5)CC4)nc3)c(=O)c2c1 (stereo partly drawn) [Example 145]", "target-or-test-system": "B-RAF V600E (Homo sapiens, UniProt P15056, V600E)", "DC50": "50 to 500 nM"}
{"compound": "N#Cc1c(NS(=O)(=O)N2CC[C@@H](F)C2)ccc(F)c1Oc1ccc2ncn(-c3ccc(N4CC5(CCN(CC6CCN(c7ccc8c(c7)CN([C@H]7CCC(=O)NC7=O)C8=O)CC6)CC5)C4)cc3)c(=O)c2c1 [Example 192]", "target-or-test-system": "B-RAF V600E (Homo sapiens, UniProt P15056, V600E)", "DC50": "50 to 500 nM"}
{"compound": "N#Cc1c(NS(=O)(=O)N2CC[C@@H](F)C2)ccc(F)c1Oc1ccc2ncn(-c3cnc(N4CCC(C5CN(c6ccc7c(c6)C(=O)N(C6CCC(=O)NC6=O)C7=O)C5)CC4)nc3)c(=O)c2c1 (stereo partly drawn) [Example 155]", "target-or-test-system": "B-RAF V600E (Homo sapiens, UniProt P15056, V600E)", "DC50": "> 500 nM"}
{"compound": "N#Cc1c(NS(=O)(=O)N2CC[C@@H](F)C2)ccc(F)c1Oc1ccc2ncn(-c3ccc(N4CCC(c5ccc6c(c5)C(=O)N(C5CCC(=O)NC5=O)C6=O)CC4)nc3)c(=O)c2c1 (stereo partly drawn) [Example 135]", "target-or-test-system": "B-RAF V600E (Homo sapiens, UniProt P15056, V600E)", "DC50": "> 500 nM"}
{"compound": "CC(C)(C1CCN(c2ccc(-n3cnc4ccc(Oc5c(F)ccc(NS(=O)(=O)N6CC[C@@H](F)C6)c5C#N)cc4c3=O)cc2)CC1)N1CCN(c2ccc3c(c2)CN([C@H]2CCC(=O)NC2=O)C3=O)CC1 [Example 269]", "target-or-test-system": "B-RAF V600E (Homo sapiens, UniProt P15056, V600E)", "DC50": "50 to 500 nM"}
{"compound": "N#Cc1c(NS(=O)(=O)N2CC[C@@H](F)C2)ccc(F)c1Oc1ccc2ncn(-c3ccc(N4CCN(c5ccc6c(c5)C(=O)N(C5CCC(=O)NC5=O)C6=O)CC4)nc3)c(=O)c2c1 (stereo partly drawn) [Example 161]", "target-or-test-system": "B-RAF V600E (Homo sapiens, UniProt P15056, V600E)", "DC50": "50 to 500 nM"}
{"compound": "C[C@H]1CN(CC2CCN(c3ccc4c(c3F)CN([C@H]3CCC(=O)NC3=O)C4=O)CC2)CCN1c1ccc(-n2cnc3ccc(Oc4c(F)ccc(NS(=O)(=O)N5CC[C@@H](F)C5)c4C#N)cc3c2=O)nc1 [Example 213]", "target-or-test-system": "B-RAF V600E (Homo sapiens, UniProt P15056, V600E)", "DC50": "50 to 500 nM"}
{"compound": "N#Cc1c(NS(=O)(=O)N2CC[C@@H](F)C2)ccc(F)c1Oc1ccc2ncn(-c3ccc(C4CCN(CC5CN(c6ccc7c(c6Cl)CN([C@H]6CCC(=O)NC6=O)C7=O)C5)CC4)cc3)c(=O)c2c1 [Example 258]", "target-or-test-system": "B-RAF V600E (Homo sapiens, UniProt P15056, V600E)", "DC50": "50 to 500 nM"}
